Cited source: patent US8507509B2

Test system: Pythium ultimum
Test: Pythium ultimum (Damping off), liquid culture growth inhibition in potato dextrose broth
Format: cell-based
Settings: Globisporangium ultimum; 20 ppm; potato dextrose broth, 24° C.; inhibition of growth determined photometrically after 48 hours; read-out: control of fungal infection, Pythium ultimum
Collected inhibition of growth at 20 ppm values appear next to each entry.
value_type: inhibition of growth at 20 ppm

compound | test_system | value_type | experimental_result
C#Cc1cnc2ccc(OC(CC)C(=O)NC(C)(C#N)C=NOC)cc2c1 (centres unmarked) | Pythium ultimum | inhibition of growth at 20 ppm | ≥ 60%
C#Cc1cnc2c(Cl)cc(OC(SC)C(=O)NC(C)(C)C=NOCC=C)cc2c1 (centres unmarked) | Pythium ultimum | inhibition of growth at 20 ppm | ≥ 60%
C#Cc1cnc2ccc(OC(SC)C(=O)NC(C)(C)C=NOCC)cc2c1 (centres unmarked) [Compound No. 118] | Pythium ultimum | inhibition of growth at 20 ppm | ≥ 60%
C#Cc1cnc2c(C)cc(OC(CC)C(=O)NC(C)(C)C=NOC)cc2c1 (centres unmarked) | Pythium ultimum | inhibition of growth at 20 ppm | ≥ 60%
CON=C(c1ccccc1)C(C)(C)NC(=O)C(Oc1ccc2ncc(Br)cc2c1)SC (centres unmarked) | Pythium ultimum | inhibition of growth at 20 ppm | ≥ 60%
CON=CC(C)(C)NC(=O)C(Oc1ccc2ncc(Br)cc2c1)SC (centres unmarked) | Pythium ultimum | inhibition of growth at 20 ppm | ≥ 60%
CCC(Oc1ccc2ncc(Br)cc2c1)C(=O)NC(C)(C#N)C=NOC (centres unmarked) | Pythium ultimum | inhibition of growth at 20 ppm | ≥ 60%
CON=CC(C)(C#N)NC(=O)C(Oc1cc(C)c2ncc(I)cc2c1)SC (centres unmarked) | Pythium ultimum | inhibition of growth at 20 ppm | ≥ 60%
CON=CC1(NC(=O)C(Oc2ccc3ncc(I)cc3c2)SC)CCC1 (centres unmarked) | Pythium ultimum | inhibition of growth at 20 ppm | ≥ 60%
CCC(Oc1cc(Cl)c2ncc(Br)cc2c1)C(=O)NC(C)(C)C=NOC (centres unmarked) | Pythium ultimum | inhibition of growth at 20 ppm | ≥ 60%
C#Cc1cnc2c(C)cc(OC(OC)C(=O)NC(C)(C)C=NOC)cc2c1 (centres unmarked) | Pythium ultimum | inhibition of growth at 20 ppm | ≥ 60%
CC#CCON=CC(C)(C)NC(=O)C(Oc1ccc2ncc(Br)cc2c1)SC (centres unmarked) | Pythium ultimum | inhibition of growth at 20 ppm | ≥ 60%
CCC(Oc1ccc2ncc(Br)cc2c1)C(=O)NC(C)(C)C=NO (centres unmarked) | Pythium ultimum | inhibition of growth at 20 ppm | ≥ 60%
CCON=CC(C)(C)NC(=O)C(Oc1ccc2ncc(Br)cc2c1)SC (centres unmarked) | Pythium ultimum | inhibition of growth at 20 ppm | ≥ 60%
CON=CC(C)(C#N)NC(=O)C(Oc1cc(C)c2ncc(Br)cc2c1)SC (centres unmarked) | Pythium ultimum | inhibition of growth at 20 ppm | ≥ 60%
C#Cc1cnc2c(C)cc(OC(SC)C(=O)NC(C)(C)C=NOC)cc2c1 (centres unmarked) | Pythium ultimum | inhibition of growth at 20 ppm | ≥ 60%
C#Cc1cnc2c(C)cc(OC(SC)C(=O)NC(C)(C)C=NOCC)cc2c1 (centres unmarked) | Pythium ultimum | inhibition of growth at 20 ppm | ≥ 60%
